- measurement.target: recombinant sEH (soluble epoxide hydrolase, EPHX2) (Homo sapiens (Human))
- Sequence (P34913 whole entry): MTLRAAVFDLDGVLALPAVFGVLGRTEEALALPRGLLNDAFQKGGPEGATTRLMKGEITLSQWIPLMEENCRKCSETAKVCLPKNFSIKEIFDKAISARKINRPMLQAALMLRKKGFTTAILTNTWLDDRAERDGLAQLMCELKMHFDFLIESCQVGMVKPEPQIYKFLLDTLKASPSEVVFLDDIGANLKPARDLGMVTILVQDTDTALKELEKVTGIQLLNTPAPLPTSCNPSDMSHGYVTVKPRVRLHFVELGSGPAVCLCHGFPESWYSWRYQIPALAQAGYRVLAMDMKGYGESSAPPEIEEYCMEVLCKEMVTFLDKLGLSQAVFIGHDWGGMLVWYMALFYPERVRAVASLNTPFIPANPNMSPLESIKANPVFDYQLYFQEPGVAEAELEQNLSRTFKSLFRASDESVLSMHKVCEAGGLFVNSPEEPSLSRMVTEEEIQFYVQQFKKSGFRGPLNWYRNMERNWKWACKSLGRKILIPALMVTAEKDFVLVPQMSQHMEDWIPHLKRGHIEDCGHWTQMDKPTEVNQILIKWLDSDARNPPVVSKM
- protocol: biochemical fluorometric sEH inhibition assay with Phome substrate
- measurement.setup: recombinant sEH purified from Sf9 insect cells, 2 nM sEH, 5 μM Phome, 60 minutes at 30° C.
- Procedure: Compounds were tested in a biochemical screening assay using recombinant sEH purified from Sf9 insect cells and an artificial substrate, (3-phenyl-oxiranyl)-acetic acid cyano-(6-methoxy-naphtalen-2-yl)-methyl ester, Phome. […] Fluorescence is measured with any suitable detector for instance a TECAN Safire or Tecan Ultra at […]. % inhibition of recombinant sEH activity is used for calculation of corresponding IC50 values as illustrated and described in the examples. […]
pIC50: −log10 of the molar value.
Class true: pIC50 at least 8. Class false: pIC50 below 8.

O=C(NCc1ccc(Cl)cc1Cl)c1ccc(CN2CCN(C(=O)c3ccccn3)CC2)s1    true
O=C(NCc1ccccc1C(F)(F)F)c1ccc(CN2CCN(C(=O)Cc3ccccc3Cl)CC2)s1    true
CC(O)C(=O)N1CCN(Cc2ncc(C(=O)NCc3ccc(Cl)cc3Cl)s2)CC1 (stereo not shown)    false

From here, focus on the item given below.
Ask: Assess whether reported pIC50 for COc1ccc(CNC(=O)c2ccc(CN3CCN(c4ccccn4)CC3)s2)c(OC(F)(F)F)c1 sits at 8 or higher.
Reply: true
